System: UACC-257 melanoma
Assay: NCI-60 one-dose screen, 48 h
Conditions: 10 µM unless noted
This is part of a sample that, as a whole, favours compounds with a hit. Of some 83,000 tested, about 20% had one in any assay. The source made the active and inactive calls. Rule for the calls: active = growth percent below 10; inactive = the rest.
Permitted responses: label 1 (active), label 0 (inactive)

COC(=O)[C@@H](OC)[C@@H]1Cc2cc3cc(OC4CC(OC5CC(O)C(O)C(C)O5)C(O)C(C)O4)c(C)c(O)c3c(O)c2C(=O)[C@H]1OC1CC(OC2CC(OC3CC(C)(O)C(O)C(C)O3)C(O)C(C)O2)C(O)C(C)O1 (some centres undefined) = label 1
C[C@H](NC(=O)c1c(N)nn2cccnc12)c1cc2cccc(C#Cc3cnn(C)c3)c2c(=O)n1-c1ccccc1 = label 0

Exam item: Short answer needed: outcome of this test for `CNC(=O)c1ccccc1Nc1nc(Nc2ccc3c(c2OC)CCC[C@H](N2CCN(CCO)CC2)C3)ncc1Cl` ?
Marked response: label 1

Exam item: Next compound: COc1cc(NC2CCC(=O)N2c2ccc(Cl)cc2Cl)cc(OC)c1OC (centres undefined)
Marked response: label 0

Provenance of the data: PubChem BioAssay (NCI)
